src = PubChem BioAssay

Experiment: inhibition of 3D7 malaria parasite growth – strain 3D7 (AID 2306);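 also: 0% = DMSO wells and 100% = chloroquine plus artemisinin control wells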
Conditions: P. falciparum 3D7 erythrocytic growth, LDH absorbance, 72 h; at 2 µM; active compounds read high
Provide the reported growth inhibition of each item.
Enter your answer as a number in %; do not include the unit.

Q: Given "CN(c1cc(NC(=O)c2ccc(F)cc2)ccn1)C1CCN(Cc2ccc(C#N)cc2)CC1" , state its recorded growth inhibition.
Result: 87

Q: # input compound: "COCCNCc1ccc(-c2cccc(CN(C(=O)CCC3CCCC3)C3CCN(Cc4ccccc4)CC3)c2)cc1" ; wanted: its growth inhibition
Result: 91

Q: growth inhibition lookup needed for "FC(F)(F)c1cccc(N2CCC(CN3CCC(c4c[nH]c5ccccc45)CC3)CC2)n1" , thanks.
Result: 84

Q: Which measured growth inhibition value corresponds to COc1cccc(O)c1CNCC(O)c1cccc(C(F)(F)F)c1 (centres undefined) ?
Result: 98

Q: So what's the measured growth inhibition for this one? "O=C(/C=C/c1ccc(Cl)c(Cl)c1)N1CCC(CN2CC[C@H](c3c[nH]c4ccccc34)[C@@H](O)C2)CC1"
Result: 99

Q: Find the recorded growth inhibition belonging to "Cc1[nH]c2ccccc2c1C1=CCN(CCN2CCCc3c(Br)cccc3C2=O)CC1" and report it.
Result: 95

Q: Item under review: COC(=O)c1ccc(CC(C)NCC(O)c2cccc(SC(F)(F)F)c2)cc1 (centres undefined) . Reported growth inhibition?
Result: 96

Q: Sample Cc1ccccc1CNCC(O)c1cccc(C(F)(F)F)c1 (centres undefined) — what was its growth inhibition?
Result: 99

Q: // lookup growth inhibition for CC(Cc1ccc(OC2CCCCC2)cc1)NCC(O)c1cccc(Cl)c1 (centres undefined)
Result: 99

Q: // query growth inhibition value for entry "CC(=O)Nc1ccc(OCCN(CC(F)(F)F)c2ccc(C#N)cc2C(F)(F)F)cc1"
Result: 81

Q: I am curious: what growth inhibition value has been reported for COc1ccc(C=CC(=O)NC2CCC(CN3CCC(c4c[nH]c5ccccc45)CC3)CC2)cc1 (centres undefined) ?
Result: 100

Q: What does the record list as growth inhibition for COC(=O)c1ccc(CC(C)NCC(O)c2cccc(I)c2)cc1 (centres undefined) ?
Result: 87

Q: Look up growth inhibition: CCCc1c(C(=O)NC2CCC(CN3CCC(c4c[nH]c5ccccc45)CC3)CC2)cnn1-c1c(Cl)cc(Cl)cc1Cl (centres undefined)
Result: 100

Q: Please report the recorded growth inhibition for O=C(/C=C/c1ccc(Cl)c(Cl)c1)NC1CCC(N2CCC(c3c[nH]c4ccccc34)CC2)CC1 (centres undefined) .
Result: 100
